System: PIP5K1A
Conditions: concentration: 1 μM, replicates: in singlicate; n = 1;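 further: KINOMEscan kinase panel screen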
Below, each of the compounds is paired with its reported %Inh value.
The reply should read as a number followed by its unit.

Example entries begin here.
| compound | valueReported |
| --- | --- |
| Cl.O=S(=O)(c1cccc(F)c1)c1ccc(Nc2ncnc3cc(Br)sc23)cc1Cl | 9% |
| Fc1ccc(-c2ncn(CCCNCc3ccccc3)c2-c2ccncc2)cc1 | 0% |
| Cn1ccc2ncnc(Nc3ccc(Oc4cccc(Cl)c4)c(Cl)c3)c21 | 0% |
| COC(=O)c1c(-c2ccccc2)c2cc(Cl)ccc2c(=O)n1Cc1ccc(S(C)(=O)=O)cc1 | 16% |
| Cl.c1ccc(Cn2ncc3cc(Nc4ncnc5ccccc45)ccc32)cc1 | 0% |

INPUT: # return %Inh for CS(=O)(=O)CCNCc1ccc(-c2ccc3ncnc(Nc4ccc(OCc5ccccc5)c(Cl)c4)c3c2)o1.Cl , test system: PIP5K1A
OUTPUT: 32%

INPUT: # return %Inh for COc1ccc(Nc2nccc(N3CCC(NC(=O)Nc4ccc5c(c4)OCO5)C3)n2)cc1 (stereo not shown) , test system: PIP5K1A
OUTPUT: 11%

INPUT: # return %Inh for CC(C)(C)c1ccc(-n2cnc3c(N)ncnc32)cc1 , test system: PIP5K1A
OUTPUT: 0%

###

Test system: DCAMKL1
Construct: gene DCLK1
Details: concentration: 1 μM, replicates: in singlicate; n = 1
measurementLabel: %Inh (%)
Respond with the bare value in %.

Example entries begin here.
| molecule | valueReported |
| --- | --- |
| Cl.c1ccc(Cn2ccc3cc(Nc4ncnc5ccccc45)ccc32)cc1 [GW275568] | 22 |
| Nc1nc(-c2ccc3c(N)n[nH]c3c2)cc(N2CCCCC2)n1 [GSK2228768] | 0 |
| NC(=O)c1sc(-n2cnc3ccccc32)cc1OCc1ccccc1F [GSK1024306] | 0 |
| O=C(Nc1ccccc1)Nc1ccc(Oc2ccc3nccn3n2)cc1 | 9 |

INPUT: Read off the recorded %Inh for Fc1cccc(COc2ccc(Nc3ncnc4cc[nH]c34)cc2Cl)c1
OUTPUT: 29

INPUT: Read off the recorded %Inh for C[C@H]1CC[C@@H](C(=O)Nc2ccccc2)CN1c1cc(-c2ccc3c(N)n[nH]c3c2)nc(N)n1 [GSK2283293]
OUTPUT: 23

INPUT: Read off the recorded %Inh for Nc1nc(-c2cccnc2)c(-c2ccnc3ccccc23)s1 [GW684083]
OUTPUT: 18

INPUT: Read off the recorded %Inh for Cc1ccc(C)c(NC(=O)NCCNc2ccnc(Nc3ccc(F)cc3)n2)c1 [GSK1379878]
OUTPUT: 19

INPUT: Read off the recorded %Inh for O=C(NCCCN1CCCC1=O)c1cnc(NCc2cc(Cl)ccc2Cl)nc1NC1CCNCC1
OUTPUT: 17

INPUT: Read off the recorded %Inh for COC(=O)c1c(-c2ccccc2)c2cc(Cl)ccc2c(=O)n1Cc1ccc(S(C)(=O)=O)cc1
OUTPUT: 5

###

System: CDK4
Conditions: concentration: 1 μM, replicates: in singlicate; n = 1
Below, each of the compounds is paired with its reported %Inh value.
Respond with the bare value in %.

Example entries begin here.
| structureSmiles | %Inh / % |
| --- | --- |
| CCc1nc(-c2cccc(N(C)S(=O)(=O)c3ccccc3)c2)c(-c2ccnc(Nc3ccc(N4CCN(C(C)=O)CC4)nc3)n2)s1 | 0 |
| Nc1n[nH]c2nnc(-c3ccccc3)cc12 | 0 |
| C[C@H]1CC[C@@H](C(=O)Nc2ccccc2)CN1c1cc(-c2ccc3c(N)n[nH]c3c2)nc(N)n1 | 0 |
| O=c1cc(N2CCOCC2)nc2n(Cc3cccc(Cl)c3)ccn12 | 0 |
| Nc1nc(-c2ccc3c(N)n[nH]c3c2)cc(N2CCCCC2)n1 | 0 |
| COc1ccc(NC(=O)Nc2ccc(C)c(-c3ccc(C(=O)Nc4ccncc4)cc3)c2)cc1 | 7 |
| Cc1cccc(-c2nc(Nc3ccc4[nH]nnc4c3)c3ccccc3n2)n1 | 0 |
| CC(=O)Nc1n[nH]c2ncc(-c3ccccc3)cc12 | 25 |

Could you now consider this next compound?
INPUT: Read off the recorded %Inh for Cl.Cl.c1ccc(-c2cc3ccncc3cc2OC2CCNCC2)cc1
OUTPUT: 11
